# EXPERIMENTAL_SYSTEM: CARM1 (Homo sapiens, UniProt Q86X55)
# Construct: Flag-CARM1-His
# Sequence (Q86X55 1-585 isoform Q86X55-1): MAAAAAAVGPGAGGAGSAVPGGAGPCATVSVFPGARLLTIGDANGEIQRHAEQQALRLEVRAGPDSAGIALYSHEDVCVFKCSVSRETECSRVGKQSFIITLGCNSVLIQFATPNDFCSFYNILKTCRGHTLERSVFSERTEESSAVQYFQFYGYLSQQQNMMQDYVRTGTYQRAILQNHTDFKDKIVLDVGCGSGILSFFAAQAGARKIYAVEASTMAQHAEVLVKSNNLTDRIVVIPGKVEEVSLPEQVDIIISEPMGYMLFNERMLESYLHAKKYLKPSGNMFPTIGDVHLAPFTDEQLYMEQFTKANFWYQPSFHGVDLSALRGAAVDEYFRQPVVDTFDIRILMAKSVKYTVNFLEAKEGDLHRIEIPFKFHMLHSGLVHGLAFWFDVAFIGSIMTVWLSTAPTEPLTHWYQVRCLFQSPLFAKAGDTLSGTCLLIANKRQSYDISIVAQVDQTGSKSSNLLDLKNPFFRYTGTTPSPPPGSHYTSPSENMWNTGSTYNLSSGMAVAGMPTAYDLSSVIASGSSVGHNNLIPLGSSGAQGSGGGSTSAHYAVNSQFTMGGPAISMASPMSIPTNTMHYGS
# PROCEDURE_TEXT: CARM1 enzyme assay on peptide substrate (3H-SAM Flashplate)
# RUN_CONDITIONS: CARM1 0.25 nM, 3H-SAM 30 nM, peptide 250 nM, 30 min preincubation; read-out: Biochem IC50
Answer each item with its documented IC50.

The cases that follow already have their IC50 on record.
COMPOUND	IC50
COc1nc(C)cc(C)c1CNc1cc(-c2cccc(OCC(O)CN)c2)nc2c1cnn2C(C)C (stereo not shown)	< 100 nM
CNCC(O)COc1cccc(-c2cc(NCCCCCNC(=O)c3ccn(C)n3)c3cnn(C(C)C)c3n2)c1 (stereo not shown)	< 100 nM

Value sought for every listed compound: IC50.
1. CCNCC(O)COc1cccc(-c2cc(N3CCOCC3)c3cnn(C(C)C)c3n2)c1 (stereo not shown)
2. CNCC(O)COc1cccc(-c2cc(NC(=O)NC)c3cnn(C(C)C)c3n2)c1 (stereo not shown)
3. CC(C)n1ncc2c(NC3CCOCC3)cc(-c3cccc(OCC(O)CN)c3)nc21 (stereo not shown)
4. CNCC(O)COc1cccc(-c2cc(NCCCCCCNC(=O)c3ccn(C)n3)c3cnn(C(C)C)c3n2)c1 (stereo not shown)
5. CC(C)n1ncc2c(N3CCOCC3)cc(-c3cccc(OC[C@@H](O)CN)c3)nc21

Output line:
["< 100 nM", "< 100 nM", "100 to 1000 nM", "100 to 1000 nM", "100 to 1000 nM"]
